# TESTED_ON: GST-Nef (HIV-1 NL4-3 Nef containing a T71R change) (HIV-1 NL4-3) [GST: P08515]
# TEST_SUMMARY: competition plate assay: unlabeled GST-SH3 vs biotinylated Hck-SH3 probe (66 nM) on immobilized GST-Nef
Attribute: ratio of competitor per probe giving 50% inhibition (1:x competitor:probe)
PROPERTY_NAME: ratio of competitor per probe giving 50% inhibition (1:x competitor:probe)

| SUBSTANCE | TESTED_ON | EXPERIMENTAL_RESULT |
| --- | --- | --- |
| GST-RRT.C1 (Hck-derived RRT-SH3 domain, RT-loop TSPFPW) (from UniProt P08631 62-118) (designed binder) | GST-Nef (HIV-1 NL4-3 Nef containing a T71R change) (HIV-1 NL4-3) [GST: P08515] | 31 |
| GST-RRT.m3 (Hck-derived RRT-SH3 domain selected on NefR90, RT-loop EAWSPL) (from UniProt P08631 62-118) (designed binder) | GST-Nef (HIV-1 NL4-3 Nef containing a T71R change) (HIV-1 NL4-3) [GST: P08515] | 17 |
| GST-RRT.B6 (Hck-derived RRT-SH3 domain, RT-loop YSPFSW) (from UniProt P08631 62-118) (designed binder) | GST-Nef (HIV-1 NL4-3 Nef containing a T71R change) (HIV-1 NL4-3) [GST: P08515] | 37 |
| GST-RRT.C4 (Hck-derived RRT-SH3 domain, RT-loop DSWFPW) (from UniProt P08631 62-118) (designed binder) | GST-Nef (HIV-1 NL4-3 Nef containing a T71R change) (HIV-1 NL4-3) [GST: P08515] | 14 |
| GST-RRT.m1 (Hck-derived RRT-SH3 domain selected on NefR90, RT-loop QGFLDQ) (from UniProt P08631 62-118) (designed binder) | GST-Nef (HIV-1 NL4-3 Nef containing a T71R change) (HIV-1 NL4-3) [GST: P08515] | 0.8 |
| GST-RRT.B4 (Hck-derived RRT-SH3 domain, RT-loop FSPFDW) (from UniProt P08631 62-118) (designed binder) | GST-Nef (HIV-1 NL4-3 Nef containing a T71R change) (HIV-1 NL4-3) [GST: P08515] | 21 |
| GST-RRT.C3 (Hck-derived RRT-SH3 domain, RT-loop YSDFPW) (from UniProt P08631 62-118) (designed binder) | GST-Nef (HIV-1 NL4-3 Nef containing a T71R change) (HIV-1 NL4-3) [GST: P08515] | 26 |
| GST-RRT.C2 (Hck-derived RRT-SH3 domain, RT-loop YSFFPW) (from UniProt P08631 62-118) (designed binder) | GST-Nef (HIV-1 NL4-3 Nef containing a T71R change) (HIV-1 NL4-3) [GST: P08515] | 16 |
